B1: TRIM63 (parent)
chain: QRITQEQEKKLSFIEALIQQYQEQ

Variants of: B1
Assay: protein stability index of a GFP-peptide fusion (GPS, HEK-293T) (PSI 1-6); higher = more stable;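 also: lentivirally expressed fusions sorted by FACS into six bins by GFP to DsRed ratio, PSI derived from sequencing read proportions per bin multiplied by bin number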
Settings: c terminus: a fixed tail appended
readout: protein stability index

query: Need protein stability index of "F13K" , thanks.
result: 3.59

query: Need protein stability index of "K9I" , thanks.
result: 1.79

query: Need protein stability index of "Q19T" , thanks.
result: 2.75

query: Need protein stability index of "Q24P" , thanks.
result: 2.68

query: Need protein stability index of "Q7T" , thanks.
result: 3.54

query: Need protein stability index of "I14S" , thanks.
result: 3.48

query: Need protein stability index of "K9D" , thanks.
result: 2.77

query: Need protein stability index of "A16I" , thanks.
result: 3.03

query: Need protein stability index of "F13H" , thanks.
result: 4.14

query: Need protein stability index of "E6Q" , thanks.
result: 1.75

query: Need protein stability index of "L11G" , thanks.
result: 2.53

query: Need protein stability index of "Q20S" , thanks.
result: 2.4

query: Need protein stability index of "Q19N" , thanks.
result: 2.25

query: Need protein stability index of "F13E" , thanks.
result: 4.78

query: Need protein stability index of "K9L" , thanks.
result: 1.88

query: Need protein stability index of "K9F" , thanks.
result: 2.78

query: Need protein stability index of "Q5P" , thanks.
result: 2.13

query: Need protein stability index of "A16G" , thanks.
result: 3.33

query: Need protein stability index of "Q22D" , thanks.
result: 1.77

query: Need protein stability index of "E6W" , thanks.
result: 1.43

query: Need protein stability index of "E23S" , thanks.
result: 2

query: Need protein stability index of "Q5Y" , thanks.
result: 2.27

query: Need protein stability index of "F13A" , thanks.
result: 4.47

query: Need protein stability index of "I18H" , thanks.
result: 3.6

query: Need protein stability index of "E23Q" , thanks.
result: 2.18

query: Need protein stability index of "Q20L" , thanks.
result: 2.43

query: Need protein stability index of "L11V" , thanks.
result: 1.95

query: Need protein stability index of "K9S" , thanks.
result: 2.7

query: Need protein stability index of "E6V" , thanks.
result: 1.81

query: Need protein stability index of "L17K" , thanks.
result: 3.75

query: Need protein stability index of "Q19P" , thanks.
result: 3.19

query: Need protein stability index of "Q20W" , thanks.
result: 2.01

query: Need protein stability index of "T4P" , thanks.
result: 2.87

query: Need protein stability index of "Q24L" , thanks.
result: 2.16

query: Need protein stability index of "Q20E" , thanks.
result: 1.09

query: Need protein stability index of "A16Q" , thanks.
result: 1.83

query: Need protein stability index of "Q7C" , thanks.
result: 2.83

query: Need protein stability index of "Q22Y" , thanks.
result: 2.62

query: Need protein stability index of "Y21F" , thanks.
result: 1.76

query: Need protein stability index of "Q1I" , thanks.
result: 2.75

query: Need protein stability index of "Y21A" , thanks.
result: 3.38

query: Need protein stability index of "T4S" , thanks.
result: 2.5

query: Need protein stability index of "Q22C" , thanks.
result: 2.48

query: Need protein stability index of "I3V" , thanks.
result: 2.56

query: Need protein stability index of "Q5M" , thanks.
result: 2.33

query: Need protein stability index of "S12K" , thanks.
result: 1.91
